These entries and their values trace back to patent US20260193238A1.

- test.system: PARP1 (Homo sapiens)
- Sequence (P09874 whole entry): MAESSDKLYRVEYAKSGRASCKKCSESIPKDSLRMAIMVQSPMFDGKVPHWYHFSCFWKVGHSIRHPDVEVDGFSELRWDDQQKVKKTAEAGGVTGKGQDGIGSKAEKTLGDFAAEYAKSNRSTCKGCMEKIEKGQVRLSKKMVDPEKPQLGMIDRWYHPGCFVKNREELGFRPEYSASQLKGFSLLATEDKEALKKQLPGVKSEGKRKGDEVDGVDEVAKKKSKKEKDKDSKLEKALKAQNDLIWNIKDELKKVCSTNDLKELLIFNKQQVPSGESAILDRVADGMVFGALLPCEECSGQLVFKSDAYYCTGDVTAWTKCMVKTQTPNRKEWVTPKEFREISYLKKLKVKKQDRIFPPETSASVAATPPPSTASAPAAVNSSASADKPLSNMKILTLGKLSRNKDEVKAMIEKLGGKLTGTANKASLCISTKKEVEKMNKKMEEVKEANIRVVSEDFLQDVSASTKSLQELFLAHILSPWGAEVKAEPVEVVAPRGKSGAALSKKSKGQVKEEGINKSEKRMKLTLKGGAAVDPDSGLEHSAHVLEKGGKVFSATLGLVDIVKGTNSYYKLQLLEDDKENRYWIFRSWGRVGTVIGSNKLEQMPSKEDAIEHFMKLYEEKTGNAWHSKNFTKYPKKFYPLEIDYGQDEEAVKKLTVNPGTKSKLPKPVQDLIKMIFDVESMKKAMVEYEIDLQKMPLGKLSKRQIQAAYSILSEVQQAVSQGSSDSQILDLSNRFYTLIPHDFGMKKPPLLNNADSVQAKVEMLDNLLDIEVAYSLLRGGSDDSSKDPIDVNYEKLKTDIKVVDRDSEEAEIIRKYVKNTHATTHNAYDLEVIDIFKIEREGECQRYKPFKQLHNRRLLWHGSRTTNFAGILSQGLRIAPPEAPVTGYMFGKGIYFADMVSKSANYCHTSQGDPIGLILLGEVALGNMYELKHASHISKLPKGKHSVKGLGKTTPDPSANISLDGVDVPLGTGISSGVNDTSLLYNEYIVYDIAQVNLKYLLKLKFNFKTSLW
- protocol.summary: PARP1 biochemical DELFIA assay (auto-PARylation)
- condition.notes: Table 1A
parameter.measured: IC50

INSERT INTO assay_data (compound, result_value) VALUES
  ('O=C(CN1CCCC1c1cc(C(F)(F)F)c(=O)[nH]n1)N1CCN(c2ccc(C(F)F)cn2)CC1 (single isomer, unassigned) [Compound 126a]', '10 to 100 nM'),
  ('Cc1[nH]c(=O)c(C(F)(F)F)cc1C1CCCN1CC(=O)N1CCN(c2ncc(C(F)(F)F)cn2)CC1 (single isomer, unassigned) [Compound 102b]', '1000 to 10000 nM'),
  ('O=C(CN1CCOCC1c1cc(C(F)(F)F)c(=O)[nH]n1)N1CCN(c2ncc(C(F)(F)F)cn2)CC1 (single isomer, unassigned) [Compound 88b]', '100 to 1000 nM'),
  ('O=C(CN1CCC(c2cc(C(F)(F)F)c(=O)[nH]n2)CC1)N1CCN(c2ncc(C(F)(F)F)cn2)CC1 [Compound 62]', '100 to 1000 nM'),
  ('O=C(CN1CCCC1c1c[nH]c(=O)c(C(F)(F)F)c1)N1CCN(c2ncc(C(F)(F)F)cn2)CC1 (single isomer, unassigned) [Compound 60b]', '100 to 1000 nM'),
  ('O=C(CN1CCCC1c1cc(C(F)(F)F)c(=O)[nH]n1)N1CC2(CCN(c3ncc(C(F)(F)F)cn3)CC2)C1 (single isomer, unassigned) [Compound 110b]', '1000 to 10000 nM'),
  ('N#Cc1[nH]c(=O)c(C(F)(F)F)cc1C1CCCN1CC(=O)N1CCN(c2ncc(C(F)(F)F)cn2)CC1 (racemic) [Compound 115rac]', '> 10000 nM'),
  ('CCc1cc(C2CCCN2CC(=O)N2CCN(c3ncc(C(F)(F)F)cn3)CC2)n[nH]c1=O (single isomer, unassigned) [Compound 40a]', '10 to 100 nM'),
  ('O=C(CN1CCCC1c1cc(C(F)(F)F)c(=O)[nH]n1)N1CCN(c2ncc(Cl)cc2Cl)CC1 (single isomer, unassigned) [Compound 125a]', '100 to 1000 nM');
